// data source = paper PMC10786891

SYSTEM NAME: T1, EsCas13d, nuclease-dead (Eubacterium siraeum, UniProt B0MS50, R295A;H300A;R849A;H854A)
T1 sequence: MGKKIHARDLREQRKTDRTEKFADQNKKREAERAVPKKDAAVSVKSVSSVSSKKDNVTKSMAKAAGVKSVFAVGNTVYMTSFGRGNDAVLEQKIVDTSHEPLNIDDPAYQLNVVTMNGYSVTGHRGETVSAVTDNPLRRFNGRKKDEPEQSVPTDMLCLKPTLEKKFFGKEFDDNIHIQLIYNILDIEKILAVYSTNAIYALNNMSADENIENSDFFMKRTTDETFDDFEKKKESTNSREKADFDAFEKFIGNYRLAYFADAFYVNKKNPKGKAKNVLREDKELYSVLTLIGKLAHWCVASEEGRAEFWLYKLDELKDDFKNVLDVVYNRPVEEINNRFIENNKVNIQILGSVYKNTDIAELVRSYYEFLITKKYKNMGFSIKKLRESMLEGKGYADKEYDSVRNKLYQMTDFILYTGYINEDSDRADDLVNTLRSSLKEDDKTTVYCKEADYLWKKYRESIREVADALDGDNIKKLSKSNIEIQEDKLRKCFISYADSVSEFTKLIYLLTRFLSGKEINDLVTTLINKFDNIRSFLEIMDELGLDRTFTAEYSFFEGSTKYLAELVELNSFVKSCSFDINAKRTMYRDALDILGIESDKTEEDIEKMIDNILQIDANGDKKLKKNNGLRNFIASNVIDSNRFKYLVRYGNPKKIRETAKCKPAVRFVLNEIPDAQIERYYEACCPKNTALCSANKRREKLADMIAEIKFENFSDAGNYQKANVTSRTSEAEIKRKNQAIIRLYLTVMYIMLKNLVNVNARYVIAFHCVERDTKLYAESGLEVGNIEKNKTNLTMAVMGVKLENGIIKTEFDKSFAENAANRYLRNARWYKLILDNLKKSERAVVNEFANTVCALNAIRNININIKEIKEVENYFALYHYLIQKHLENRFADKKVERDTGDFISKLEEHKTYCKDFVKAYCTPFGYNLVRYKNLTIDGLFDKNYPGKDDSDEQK
ASSAY INFO: crRNA (strand 1, pre-loaded); Mg2+; 40 mM Tris-HCl pH 7.5, 150 mM NaCl, 6 mM MgCl2, 1 mM DTT, 0.1% Tween-20, 0.2 mg/ml BSA; 25 C; 10 min per concentration, then washed
EXPERIMENTAL CONTEXT: tags: His6-TwinStrep-SUMO cleaved; N-terminal SNAP kept (SNAP-Surface 488); label: 3' end held by stalled T7 RNA polymerase
Answer each item with its documented Kd.
One number for each entry, in nM.

Use these answered entries as a reference point.
BINDER	UNIT TAG	TEST RESULT
target 1 insC 3' of 18,insU 3' of 7 (mixed) RNA 1: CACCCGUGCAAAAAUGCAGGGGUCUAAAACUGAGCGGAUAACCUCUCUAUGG RNA 2: GGGAAUGGAUCCACAUCUACGAAUUCGUACCAUACGAGAGGUUAUCUCGCUCACCGAGAUCGGAAGAGCACACGU	nM	67
target 1 A1U,C7A (mixed) RNA 1: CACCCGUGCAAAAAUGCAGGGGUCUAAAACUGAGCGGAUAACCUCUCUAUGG RNA 2: GGGAAUGGAUCCACAUCUACGAAUUCGUACCAUAGAGAGGUUAUACGCUCUCCGAGAUCGGAAGAGCACACGU	nM	9.4
target 1 MT 5'PFS GAC 3'PFS CUA (mixed) RNA 1: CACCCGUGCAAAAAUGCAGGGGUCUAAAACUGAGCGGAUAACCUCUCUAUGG RNA 2: GGGAAUGGAUCCACAUCUACGAAUUCGACCCAUAGAGAGGUUAUCCGCUCACUAAGAUCGGAAGAGCACACGU	nM	15.5

Lab note: next binder to report on.
[Q] For target 1 MT 5'PFS AGA 3'PFS ACC (mixed) RNA 1: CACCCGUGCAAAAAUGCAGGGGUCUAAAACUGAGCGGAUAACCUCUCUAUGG RNA 2: GGGAAUGGAUCCACAUCUACGAAUUCAGACCAUAGAGAGGUUAUCCGCUCAACCAGAUCGGAAGAGCACACGU , write its Kd.
[A] 47
